# activity at 50 µM annotations
# System: MCF-7 cells
# PROTOCOL_SUMMARY: MTT cell viability assay, MCF-7
# Type: cell-based, human
# MEASUREMENT_PARAMETERS: Homo sapiens, MCF7; 50 μM, 48 h; read-out: Growth (%) MCF-7
Reply numerically in %, unit not repeated.

O=C(NC(=[Se])Nc1ccccc1)c1cccs1; 27.4
O=C(NC(=[Se])Nc1ccc(Cl)cc1)c1ccccc1; 13.9
Cc1ccc(NC(=[Se])NC(=O)c2cc3ccccc3s2)cc1; 62.8

Lab note: "O=C(NC(=[Se])Nc1ccc(C(F)(F)F)cc1)c1cccs1" gave activity at 50 µM of 23.5

Record "COc1ccc(NC(=[Se])NC(=O)c2ccccc2Cl)cc1" , field activity at 50 µM: 26.4

---

Property: activity at 50 µM; scope: individual compounds
# Test system: MCF-7 cells
# PROTOCOL_SUMMARY: MTT cell viability assay, MCF-7
# Assay type: cell-based, human
# MEASUREMENT_PARAMETERS: Homo sapiens, MCF7; 50 μM, 48 h; read-out: Growth (%) MCF-7
Could you give me the number in %? Just the number is fine.

Worked examples follow.
COc1ccc(NC(=[Se])NC(=O)c2cc(SC)ccc2Cl)cc1; 23.7
O=C(C=Cc1ccccc1)NC(=[Se])Nc1ccc(C(F)(F)F)cc1; 18.5
COc1ccc(NC(=[Se])NC(=O)C23CC4CC(CC(C4)C2)C3)cc1; 24.3

activity at 50 µM for O=C(NC(=[Se])Nc1ccccc1)c1ccc2c(c1)OCO2 [Compound 10a] is 22.4

response.value for "O=C(NC(=[Se])Nc1ccccc1)c1cc2ccccc2s1" (field: activity at 50 µM) = 43.4

Lookup result for "COc1ccc(NC(=[Se])NC(=O)c2cccs2)cc1" ; measured activity at 50 µM: 11.8

Consider "O=C(NC(=[Se])Nc1ccc(C(F)(F)F)cc1)C12CC3CC(CC(C3)C1)C2" . Its measured activity at 50 µM is 25.3

# compound "CSc1ccc(Cl)c(C(=O)NC(=[Se])Nc2ccc(C)cc2)c1" ; its activity at 50 µM = 24.5

Record summary for "O=C(NC(=[Se])Nc1ccccc1)c1ccccc1Cl" : reported activity at 50 µM = 30.5

---

# System: HTB-54 cells
# PROTOCOL_SUMMARY: MTT cell viability assay, HTB-54
# Format: cell-based
# MEASUREMENT_PARAMETERS: Homo sapiens; HTB-54 and H1299 pooled, 48 h; read-out: IC50 on both lung cancer cells
Overview of recorded IC50 for various molecules

COc1ccc(NC(=[Se])NC(=O)c2ccc3c(c2)OCO3)cc1 [Compound 10c]; 1.5 to 7.3 µM

For the next question, use this molecule.
For Cc1ccc(NC(=[Se])NC(=O)c2ccc3c(c2)OCO3)cc1 [Compound 10b] the molecule record lists IC50 as 1.5 to 7.3 µM

---

# PROTOCOL_SUMMARY: DPPH radical scavenging assay
# MEASUREMENT_PARAMETERS: 0.003 mg/mL
VALUE_TYPE: DPPH radical scavenging

O=C(NC(=[Se])Nc1ccc(Cl)cc1)c1ccccc1; around 40%
CSc1ccc(Cl)c(C(=O)NC(=[Se])Nc2ccc(C)cc2)c1; around 40%
O=C(NC(=[Se])Nc1ccccc1)c1ccccc1Cl; around 40%
COc1ccc(NC(=[Se])NC(=O)c2ccccc2)cc1; around 40%

# credit: paper PMC7023466
